- system: Mitogen-activated protein kinase kinase kinase kinase 1 (Homo sapiens, UniProt Q92918)
- Sequence (Q92918 whole entry): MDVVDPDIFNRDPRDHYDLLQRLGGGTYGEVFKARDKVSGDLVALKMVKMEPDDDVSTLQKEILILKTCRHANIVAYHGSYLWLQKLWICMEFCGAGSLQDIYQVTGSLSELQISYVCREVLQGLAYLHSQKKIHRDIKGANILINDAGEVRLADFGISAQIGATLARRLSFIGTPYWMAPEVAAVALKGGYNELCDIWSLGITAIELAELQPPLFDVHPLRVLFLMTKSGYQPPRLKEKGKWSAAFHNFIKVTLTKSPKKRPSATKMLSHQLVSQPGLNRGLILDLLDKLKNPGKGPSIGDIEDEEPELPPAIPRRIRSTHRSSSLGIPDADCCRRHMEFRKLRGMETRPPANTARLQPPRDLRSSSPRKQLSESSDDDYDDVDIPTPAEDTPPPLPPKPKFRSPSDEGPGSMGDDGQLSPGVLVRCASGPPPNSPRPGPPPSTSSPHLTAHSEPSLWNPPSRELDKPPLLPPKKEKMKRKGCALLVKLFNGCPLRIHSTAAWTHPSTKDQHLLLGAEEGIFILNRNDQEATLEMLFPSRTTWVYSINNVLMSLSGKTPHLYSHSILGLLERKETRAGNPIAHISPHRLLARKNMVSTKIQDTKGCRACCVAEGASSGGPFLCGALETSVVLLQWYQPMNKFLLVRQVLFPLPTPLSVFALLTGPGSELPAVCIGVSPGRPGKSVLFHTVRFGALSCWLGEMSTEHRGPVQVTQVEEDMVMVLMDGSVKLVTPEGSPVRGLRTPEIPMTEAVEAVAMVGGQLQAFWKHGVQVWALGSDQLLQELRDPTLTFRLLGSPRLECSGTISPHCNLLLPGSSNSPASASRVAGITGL
- test.name: Detection of Compound's Ability to Inhibit HPK1 Kinase Activity Assay

{"molecule": "CN1CCc2[nH]c(=O)c(Nc3ncc4ccnc(N5CCCCCC5)c4n3)cc2C1 [US20230399327, Example 73]", "IC50": "410 pM"}
{"molecule": "CN1CCc2[nH]c(=O)c(Nc3ncc4ccnc(NCC(C)(C)CO)c4n3)cc2C1 [US20230399327, Example 70]", "IC50": "290 pM"}
{"molecule": "COc1cc2c(cc1Nc1ncc3ccnc(N[C@@H](CO)C(C)C)c3n1)CN(C)CC2 [US20230399327, Example 112]", "IC50": "< 100 pM"}
{"molecule": "COc1nc2c(cc1Nc1ncc3cccc(-c4ccccc4)c3n1)CN(C)CC2 [US20230399327, Example 1]", "IC50": "< 100 pM"}
{"molecule": "CN1CCc2[nH]c(=O)c(Nc3ncc4ccnc(N5CCSCC5)c4n3)cc2C1 [US20230399327, Example 72]", "IC50": "21200 pM"}
{"molecule": "CN1CCc2c(cc(Nc3ncc4ccnc(N5CCC(F)(F)CC5)c4n3)c(=O)n2C)C1 [US20230399327, Example 79]", "IC50": "< 100 pM"}
{"molecule": "CCOc1nc2c(cc1Nc1ncc3ccnc(N4CCC[C@H]4CO)c3n1)CN(C)CC2 [US20230399327, Example 106]", "IC50": "15400 pM"}
{"molecule": "COc1nc2c(cc1Nc1ncc3ccnc(N[C@H](CO)C(C)C)c3n1)CN(C)CC2 [US20230399327, Example 91]", "IC50": "21500 pM"}
{"molecule": "COc1nc2c(cc1Nc1ncc3cccc(-c4cnn5ccccc45)c3n1)CN(C)CC2 [US20230399327, Example 2]", "IC50": "< 100 pM"}
{"molecule": "COc1nc2c(cc1Nc1ncc3ccnc(C4=CCOCC4)c3n1)CN(C)CC2 [US20230399327, Example 26]", "IC50": "8310 pM"}
{"molecule": "C[C@@H]1CCCCN1c1nccc2cnc(Nc3cc4c([nH]c3=O)CCN(C)C4)nc12 [US20230399327, Example 76]", "IC50": "< 100 pM"}
{"molecule": "CCOc1nc2c(cc1Nc1ncc3ccnc(N[C@H]4CC[C@@H](O)C4)c3n1)CN(C)CC2 [US20230399327, Example 98]", "IC50": "440 pM"}
{"molecule": "CN1CCc2[nH]c(=O)c(Nc3ncc4ccnc(NCC5(C)CC5)c4n3)cc2C1 [US20230399327, Example 77]", "IC50": "< 100 pM"}
{"molecule": "COc1nc2c(cc1Nc1ncc3ccnc(N4CCC[C@H]4CO)c3n1)CN(C)CC2 [US20230399327, Example 101]", "IC50": "< 100 pM"}
{"molecule": "CN1CCc2c(cc(Nc3ncc4ccnc(N5CCC(F)(F)C5)c4n3)c(=O)n2C)C1 [US20230399327, Example 85]", "IC50": "25300 pM"}
{"molecule": "COc1nc2c(cc1Nc1ncc3ccnc(NC(C)(C)CO)c3n1)CN(C)CC2 [US20230399327, Example 109]", "IC50": "< 100 pM"}
{"molecule": "CC[C@H](CO)Nc1nccc2cnc(Nc3cc4c(nc3OC)CCN(C)C4)nc12 [US20230399327, Example 110]", "IC50": "< 100 pM"}

Each recorded value in this set is attributed to BindingDB's records for patent US20230399327.
